# System: S. pneumoniae (8 isolates)
# Assay type: cell-based, Streptococcus pneumonia
# CONDITION_SUMMARY: 20 h
Measured S. pneumoniae (8) MIC90 by item
REPORTED_METRIC: S. pneumoniae (8) MIC90

[[record]]
compound = "CC[C@H](C)[C@H](NC(=O)[C@@H](Cc1ccc2ccccc2c1)NC)C(=O)N[C@@H](CO)C(=O)N[C@H](CCC(N)=O)C(=O)N[C@@H](C(=O)N[C@H](C(=O)N[C@@H](CO)C(=O)N[C@H]1C(=O)N[C@@H](C)C(=O)N[C@@H](CCCCNC(=N)N)C(=O)N[C@@H]([C@@H](C)CC)C(=O)O[C@H]1C)[C@@H](C)CC)[C@@H](C)CC [Compound 75]"
system_tested = "S. pneumoniae (8 isolates)"
endpoint_value = "≤0.12 µg/mL"

[[record]]
compound = "CC[C@H](C)[C@H](NC(=O)[C@@H](Cc1ccc(OC)cc1)NC)C(=O)N[C@@H](CO)C(=O)N[C@H](CCC(N)=O)C(=O)N[C@@H](C(=O)N[C@H](C(=O)N[C@@H](CO)C(=O)N[C@H]1C(=O)N[C@@H](C)C(=O)N[C@@H](CCCCNC(=N)N)C(=O)N[C@@H]([C@@H](C)CC)C(=O)O[C@H]1C)[C@@H](C)CC)[C@@H](C)CC [Compound 74]"
system_tested = "S. pneumoniae (8 isolates)"
endpoint_value = "≤0.12 µg/mL"

[[record]]
compound = "CC[C@H](C)[C@H](NC(=O)[C@@H](Cc1ccccc1)NC)C(=O)N[C@@H](Cc1cccc2ccccc12)C(=O)N[C@H](CCC(N)=O)C(=O)N[C@@H](C(=O)N[C@H](C(=O)N[C@@H](CO)C(=O)N[C@H]1C(=O)N[C@@H](C)C(=O)N[C@@H](CCCCNC(=N)N)C(=O)N[C@@H]([C@@H](C)CC)C(=O)O[C@H]1C)[C@@H](C)CC)[C@@H](C)CC [Compound 73]"
system_tested = "S. pneumoniae (8 isolates)"
endpoint_value = "≤0.12 µg/mL"

